system-tested: BRD4(BD1) (Homo sapiens (Human))
protocol-description: In vitro enzyme inhibition assay (BRD4 AlphaScreen)
Assay type: binding
study-conditions: class symbols A/B/C
Where a name gives a salt, the structure may show the parent alone.
readout-type: IC50

>  <compound>
Cn1cc(-c2cccc(NS(C)(=O)=O)c2)c2cc(F)ccc2c1=O

>  <result>
< 500 nM

$$$$
>  <compound>
Cn1cc(-c2cc(S(C)(=O)=O)ccc2Oc2ccc(F)cc2F)cc(F)c1=O

>  <result>
500 to 5000 nM

$$$$
>  <compound>
Cn1cc(-c2ccccc2F)c2ccccc2c1=O

>  <result>
> 5000 nM

$$$$
>  <compound>
Cn1cc(-c2cccc(NS(C)(=O)=O)c2)c2cnccc2c1=O

>  <result>
500 to 5000 nM

$$$$
>  <compound>
CNc1cccc(-c2cn(C)c(=O)c3ccccc23)c1 [Example 32, Hydrochloride]

>  <result>
500 to 5000 nM

$$$$
>  <compound>
Cn1cc(-c2cc(N)ccc2F)c2ccccc2c1=O [Example 23, hydrochloride]

>  <result>
500 to 5000 nM

$$$$
>  <compound>
CCN(CC)c1cc(-c2ccc(OC)c(NS(C)(=O)=O)c2)cn(C)c1=O

>  <result>
500 to 5000 nM

$$$$
>  <compound>
Cn1cc(-c2cc(S(C)(=O)=O)ccc2OCC2CC2)cc(F)c1=O

>  <result>
500 to 5000 nM

$$$$
>  <compound>
Cc1cc(-c2cc(NS(C)(=O)=O)ccc2Oc2ccc(F)cc2F)cn(C)c1=O

>  <result>
< 500 nM

$$$$
>  <compound>
COc1ccc(-c2cn(C)c(=O)c3cc(F)ccc23)cc1S(N)(=O)=O

>  <result>
500 to 5000 nM

$$$$
>  <compound>
CCS(=O)(=O)c1cccc(-c2cc(N)c(=O)n(C)c2)c1

>  <result>
> 5000 nM

$$$$
>  <compound>
Cn1cc(-c2ccco2)c2ccccc2c1=O

>  <result>
> 5000 nM

$$$$
>  <compound>
Cn1cc(-c2ccc3c(c2)NC(=O)C3)c2ccccc2c1=O

>  <result>
> 5000 nM

$$$$
>  <compound>
CCS(=O)(=O)Nc1ccc(Oc2ccc(F)cc2F)c(-c2cc(Cl)c(=O)n(C)c2)c1

>  <result>
< 500 nM

$$$$
>  <compound>
CCS(=O)(=O)Nc1ccc(Oc2ccc(F)cc2F)c(-c2cn(C)c(=O)c3cncn23)c1

>  <result>
< 500 nM

$$$$
>  <compound>
Cc1cc(=O)n(C)nc1-c1cc(S(C)(=O)=O)ccc1OCC1CC1

>  <result>
500 to 5000 nM

$$$$
>  <compound>
CN(C(=O)OC(C)(C)C)c1cccc(-c2cn(C)c(=O)c3ccccc23)c1

>  <result>
500 to 5000 nM

$$$$
>  <compound>
Cn1cc(-c2cccc(S(=O)(=O)N3CCCC3)c2)c2ccccc2c1=O

>  <result>
500 to 5000 nM

$$$$

###

Tested on: Raji, human Burkitts lymphoma cells
protocol-description: Cell-MTS proliferation assay, Raji
Type: cell-based
study-conditions: Homo sapiens, Raji; Cell-MTS, 168 hr; class symbols A/B/C
readout-type: IC50

>  <smi>
Cn1cc(-c2cc(NS(C)(=O)=O)ccc2Oc2ccc(F)cc2F)ccc1=O

>  <readout-type>
IC50

>  <result>
< 500 nM

$$$$
>  <smi>
Cn1cc(-c2cc(NS(C)(=O)=O)cc(C(F)(F)F)c2)c2ccccc2c1=O

>  <readout-type>
IC50

>  <result>
500 to 5000 nM

$$$$
>  <smi>
Cn1cc(-c2ccc3c(=O)n(C)cc(-c4cc(NS(C)(=O)=O)ccc4F)c3c2)cn1

>  <readout-type>
IC50

>  <result>
< 500 nM

$$$$
>  <smi>
CCS(=O)(=O)Nc1cccc(-c2cn(C)c(=O)c3cnccc23)c1

>  <readout-type>
IC50

>  <result>
500 to 5000 nM

$$$$

###

Tested on: HL-60, human proleukemia cells
protocol-description: Cell-MTS proliferation assay, HL-60
Type: cell-based
study-conditions: Homo sapiens, HL-60; Cell-MTS, 168 hr; class symbols A/B/C
As shown below, each of these molecules has a reported IC50 value.
readout-type: IC50

>  <smi>
CCS(=O)(=O)Nc1ccc(Oc2ccc(F)cc2F)c(-c2cc(C(F)(F)F)c(=O)n(C)c2)c1

>  <result>
< 500 nM

$$$$
>  <smi>
CCS(=O)(=O)Nc1ccc(Oc2ccc(F)cc2F)c(-c2cc(N)c(=O)n(C)c2)c1

>  <result>
< 500 nM

$$$$
>  <smi>
Cc1cc(-c2cc(S(C)(=O)=O)ccc2OCC2CC2)nn(C)c1=O

>  <result>
500 to 5000 nM

$$$$
>  <smi>
COc1ccc(-c2cc(N(C)C)c(=O)n(C)c2)cc1NS(C)(=O)=O

>  <result>
< 500 nM

$$$$
>  <smi>
CCS(=O)(=O)Nc1ccc(Oc2ccc(F)cc2F)c(-c2cn(C)c(=O)c3cnccc23)c1

>  <result>
< 500 nM

$$$$
>  <smi>
COc1ccc(-c2cn(C)c(=O)c3ccccc23)cc1NS(C)(=O)=O

>  <result>
< 500 nM

$$$$
>  <smi>
CNc1cc(-c2ccc(OC)c(NS(C)(=O)=O)c2)cn(C)c1=O

>  <result>
500 to 5000 nM

$$$$
>  <smi>
Cn1cc(-c2cccc(NS(C)(=O)=O)c2)c2ccc(F)cc2c1=O

>  <result>
< 500 nM

$$$$
>  <smi>
Cn1cc(-c2cccc(NS(C)(=O)=O)c2)c2cc(F)ccc2c1=O

>  <result>
< 500 nM

$$$$

###

system-tested: BRD4(BD1) (Homo sapiens (Human), UniProt O60885)
protocol-description: In vitro enzyme inhibition assay (BRD4 AlphaScreen)
Assay type: binding
study-conditions: class symbols A/B/C

>  <smi>
CCS(=O)(=O)c1ccc(OCC2CC2)c(-c2cn(C)c(=O)c3ccccc23)c1

>  <IC50>
< 500 nM

$$$$
>  <smi>
Cc1cc(-c2cccc(NS(C)(=O)=O)c2)cn(C)c1=O

>  <IC50>
500 to 5000 nM

$$$$
>  <smi>
Cn1cc(-c2ccc3c(=O)n(C)cc(-c4cc(NS(C)(=O)=O)c(F)cc4F)c3c2)cn1

>  <IC50>
< 500 nM

$$$$
>  <smi>
CCS(=O)(=O)Nc1ccc(Oc2ccc(F)cc2F)c(-c2cc(F)c(=O)n(C)c2)c1

>  <IC50>
< 500 nM

$$$$
>  <smi>
COc1ccc(-c2cn(C)c(=O)c3ccccc23)cc1NS(C)(=O)=O

>  <IC50>
< 500 nM

$$$$
>  <smi>
COc1cc(F)c(CS(C)(=O)=O)cc1-c1cn(C)c(=O)c2ccc(-c3cnn(C)c3)cc12

>  <IC50>
< 500 nM

$$$$
>  <smi>
Cc1cc(-c2cc(S(C)(=O)=O)ccc2OCC2CC2)nn(C)c1=O

>  <IC50>
500 to 5000 nM

$$$$
>  <smi>
CCS(=O)(=O)Nc1cccc(-c2cn(C)c(=O)c3ccc(-c4ccccc4)cc23)c1

>  <IC50>
500 to 5000 nM

$$$$
>  <smi>
Cn1cc(-c2ccc3c(=O)n(C)cc(-c4cc(S(C)(=O)=O)ccc4OCC4CC4)c3c2)cn1

>  <IC50>
< 500 nM

$$$$
>  <smi>
CCNc1cc(-c2ccc(OC)c(NS(C)(=O)=O)c2)cn(C)c1=O

>  <IC50>
500 to 5000 nM

$$$$
>  <smi>
Cn1cc(-c2cc(S(N)(=O)=O)ccc2Oc2ccc(F)cc2F)ccc1=O

>  <IC50>
< 500 nM

$$$$
>  <smi>
CCS(=O)(=O)Nc1cc(-c2cn(C)c(=O)c3ccc(-c4cnn(C)c4)cc23)c(OC)cc1F

>  <IC50>
< 500 nM

$$$$
>  <smi>
CCS(=O)(=O)Nc1ccc(Oc2ccc(F)cc2F)c(-c2ccc(=O)n(C)c2)c1

>  <IC50>
< 500 nM

$$$$
>  <smi>
Cn1cc(-c2ccc3c(=O)n(C)cc(-c4cc(NS(C)(=O)=O)ccc4F)c3c2)cn1

>  <IC50>
< 500 nM

$$$$
>  <smi>
CCS(=O)(=O)Nc1ccc(Oc2ccc(F)cc2F)c(-c2cn(C)c(=O)cc2F)c1

>  <IC50>
< 500 nM

$$$$
>  <smi>
CCS(=O)(=O)c1cccc(-c2cn(C)c(=O)c3ccncc23)c1

>  <IC50>
> 5000 nM

$$$$
>  <smi>
CCS(=O)(=O)c1ccc(OCC2CC2)c(-c2cn(C)c(=O)c3ccc(-c4cnn(C)c4)cc23)c1

>  <IC50>
< 500 nM

$$$$
>  <smi>
COc1ccc(-c2cn(C)c(=O)c(N)n2)cc1NS(C)(=O)=O

>  <IC50>
> 5000 nM

$$$$
>  <smi>
Cn1cc(-c2cccc(S(=O)(=O)NC3CC3)c2)c2ccccc2c1=O

>  <IC50>
500 to 5000 nM

$$$$
>  <smi>
Cn1cc(-c2cccc(NS(C)(=O)=O)c2)ccc1=O

>  <IC50>
500 to 5000 nM

$$$$
>  <smi>
Cn1cc(-c2ccc3c(c2)NCCO3)c2ccccc2c1=O

>  <IC50>
500 to 5000 nM

$$$$
>  <smi>
CCS(=O)(=O)Nc1cccc(-c2cn(C)c(=O)c3cnccc23)c1

>  <IC50>
500 to 5000 nM

$$$$
>  <smi>
CCS(=O)(=O)Nc1ccc(Oc2ccc(F)cc2F)c(-c2cn(C)c(=O)c3ccncc23)c1

>  <IC50>
< 500 nM

$$$$
>  <smi>
Cn1cc(-c2cc(NS(C)(=O)=O)c(F)cc2F)c2ccccc2c1=O

>  <IC50>
500 to 5000 nM

$$$$
>  <smi>
Cn1cc(-c2cc(S(C)(=O)=O)ccc2OCC2CC2)c2cc(F)ccc2c1=O

>  <IC50>
< 500 nM

$$$$
>  <smi>
Cn1cc(-c2cc(NS(C)(=O)=O)cc(C(F)(F)F)c2)c2ccccc2c1=O

>  <IC50>
500 to 5000 nM

$$$$
